- ASSAY: Microsomal stability assay, rat liver microsomes (intrinsic clearance)
- Type: in vitro ADME
OBSERVABLE: microsomal CLint (µL/min/mg)

A: FC1(F)CCN(c2nsc(N3CCN(CCc4ccc(Cl)cc4)CC3)n2)CC1
B: Clc1ccc(CCN2CCN(c3nc(Cc4ccc(Cl)cc4)ns3)CC2)cc1 [reference compound]
stdin: // pick min by microsomal CLint: A , B Please identify the chosen entry by its label.
stdout: B
